compounds and their reported growth
- System: CCRF-CEM leukemia
- Protocol Summary: NCI-60 one-dose screen, 48 h (100 = growth as untreated, 0 = no growth, -100 = all killed)
- Recorded Conditions: 10 µM unless noted
This is part of a sample that, as a whole, favours compounds with a hit. Of some 83,000 tested, about 20% had one in any assay. The source made the active and inactive calls. How the source made its calls: active means growth percent below 10; inactive means the rest.

# growth lookup, item CCC1=C[C@@H]2CN(C1)Cc1c([nH]c3ccccc13)[C@@](C(=O)OC)(c1cc3c(cc1OC)N(C)[C@H]1[C@@](O)(C(=O)OC)[C@H](OC(C)=O)[C@]4(CC)[C@@H]5C[C@@H]5CN5CC[C@]31[C@@H]54)C2 1.97% (active)

Need growth, item CCCCN1CCN(c2ccc3nc(-c4ccc5nc(-c6ccc(OCC)cc6)[nH]c5c4)[nH]c3c2)CC1 20.5% (inactive)

Consider the compound shown here: CCN1CCN(c2cc(C)c3cc(NC(=O)c4ccc(OC)c(OC)c4)ccc3n2)CC1 What is its recorded growth? 7.94% (active)

Reported growth, compound N[C@@H](CC/[N+]([O-])=N/O)C(=O)O : ____ 105% (inactive)

Value lookup for growth; key = O=C(Nc1ccc(N2CCNCC2)cn1)c1[nH]ncc1Nc1ncnc2sccc12 5.54% (active)

State the recorded growth for this entry: COc1cc2c(cc1OC)C(=O)C(CC1CCN(C(=O)Nc3ccc(C)cc3)CC1)C2 (stereo not drawn) 97.8% (inactive)

For O=S1(=O)N(Cc2ccccc2)[C@@H](Cc2ccccc2)C2O[C@H]2[C@H](Cc2ccccc2)N1Cc1ccccc1 (stereo partly drawn) , what is its reported growth? 29.5% (inactive)

Would you kindly share the measured growth for COc1ccc(-c2nsc3c2NC(=O)CC3c2ccsc2)cc1 (stereo not drawn) ? -7.06% (active)

---

- System: U251 CNS
- Protocol Summary: NCI-60 one-dose screen, 48 h
- Recorded Conditions: 10 µM unless noted
- Procedure: Growth inhibition of the U251 human tumor cell line is measured as a screen for anti-cancer activity. Cells are grown in 96 well plates and exposed to the test compound for 48 hours. Compounds are tested at a single concentration, which is 10^-5 M for most compounds. The reported endpoint is percent growth (GI% or GIPRCNT), where numbers from 0 - 100% represent growth inhibition, and numbers from -100% - 0 represent cell death. For example, a value of 40 represents 60% growth inhibition. […]
Compounds without any hit were thinned out: in the full panel of roughly 83,000, 20% have a hit. Calls of active or inactive are those of the source. Rule for the calls: active = growth percent below 10; inactive = the rest.
Could you please pick one outcome from this set? yes = active, no = inactive

The examples below pair each entry with its known result.
CC(=O)c1ccc(NC(=O)Nc2ccc(S(=O)(=O)Nc3ccc(Cl)nn3)cc2)cc1 : no
Fc1ccc(Oc2ccc(Nc3ncnc4onc(-c5ccccc5)c34)cc2)cc1 : no
COc1cc([C@@H]2NC(=O)NC(C)=C2C(=O)Nc2nc(-c3ccc(Cl)cc3)cs2)ccc1O : no
COc1ccc(S(=O)(=O)N(Cc2ccc3c(n2)C=CC(C)(C)O3)C2CCC2)cc1OC : yes
Cc1cccc2c(=O)c3c(sc12)c(N1CCNCC1)nc1ccccc13 : no

# outcome recorded in this test, key = COc1cccc(C2=NN3C(C2)c2ccccc2OC3c2ccc(/C=C3\SC(=O)NC3=O)cc2)c1 (stereo not given) no

# outcome recorded in this test, key = CCOC(=O)c1sc(-c2ccc(OS(=O)(=O)c3cccs3)c(C=O)c2)nc1C yes

Fill in: this test's call for CCCCCCCCCCCCCCn1cc(C2=C(c3coc4ccc(OC)cc34)C(=O)NC2=O)c2ccccc21 is ___ no

---

- System: K-562 leukemia
- Protocol Summary: NCI-60 one-dose screen, 48 h
- Recorded Conditions: 10 µM unless noted
About 83,000 compounds went through this panel and 20% of them were active in at least one assay; those are over-represented in the sample as a whole. Active and inactive are the calls of the source. The calls were made as follows: active = growth percent below 10; inactive = the rest.
A correct response names exactly one class from active, inactive

Take a look at these entries with their results.
O=C(Nc1ccccc1O)c1ccc(-c2ccc(Cl)cc2Cl)o1 : inactive
COc1ccc(Cn2cc(Cn3c(=O)c(-c4nc5ccccc5[nH]4)cc4ccccc43)nn2)c(OC)c1OC : active

Please state the recorded outcome for this compound: O=C(Nc1ccc(I)cc1F)c1cc(Cl)ccc1O active

Hey, what did the test say about CCOC(=O)c1cc2c(n1Cc1cc(OC)c(OC)c(OC)c1)-c1oncc1CCC2 ? active

Which result was noted for this compound in the test: CN(C)CCNc1cc(-c2ccccc2)nc2ccccc12 active

---

- System: SK-MEL-28 melanoma
- Protocol Summary: NCI-60 one-dose screen, 48 h
- Recorded Conditions: 10 µM
This is part of a sample that, as a whole, favours compounds with a hit. Of some 83,000 tested, about 20% had one in any assay. Calls of active or inactive are those of the source. How the source made its calls: active means growth percent below 10; inactive means the rest.
Respond using exactly one of the listed classes: label 1 for active, label 0 for inactive

O=C(Nc1ccc(N2CCNCC2)cc1)c1[nH]ncc1Nc1cc(C2CC2)ncn1 : label 0
FC(F)(F)c1cccc(Nc2nc3ccccc3nc2Nc2cccc(C(F)(F)F)c2)c1 : label 1
CCCSC1=NC2C(N(CC)C(=O)N2CC)N1/N=C/C=C/c1ccccc1[N+](=O)[O-] (configuration not stated) : label 0
COc1cc2c(cc1OC)C(=O)C(CC1CCN(C(=O)Nc3ccc(C)cc3)CC1)C2 (configuration not stated) : label 0
O=C(Nc1ccc(Cl)cc1F)c1cc(I)ccc1O : label 0

Now take the following molecule into account.
Call for entry CN1C(=O)N(C)C2Nn3c(s/c(=C4\C(=O)N(CCc5ccccc5)c5ccccc54)c3=O)=NC21 (configuration not stated) : label 0

---

- Tested on: ACHN renal
- Protocol Summary: NCI-60 one-dose screen, 48 h
- Recorded Conditions: 10 µM unless noted
About 83,000 compounds went through this panel and 20% of them were active in at least one assay; those are over-represented in the sample as a whole. Active and inactive are the calls of the source. How the source made its calls: active means growth percent below 10; inactive means the rest.
Lab note: assign the record to one of t = active, f = inactive

// param item: COc1ccc(/C=C/C(=O)c2c(C)nc3ccccc3c2/C=C/c2ccccc2)c(OC)c1 ; yields the recorded call f

Can you look up the reported call for O=C(Nc1ccc(I)cc1F)c1cc(F)ccc1O for me? t

GET /call?item= O=C(CSc1ccc2nnc(-c3cccc(F)c3)n2n1)Nc1ccc2c(c1)OCO2 returns the recorded outcome of this test. f

# fetch the recorded call for Cc1ccc(NCCNCC(O)CO)c2c(=O)c3ccccc3sc12 (stereo not given) here t

GET /call?item= Cc1ccc(C)c(-c2csc(Nc3ccc(C)c(C)c3)n2)c1 returns the recorded outcome of this test. f

Hello, I am checking results. What call was entered for N#CC(C#N)=Cc1c(-c2ccccc2)[nH]c2ccccc12 ? f

Hi team, can someone confirm the assay call for O=C(Nc1ccc(Cl)cc1)c1cc2ccccc2cc1OP(=O)(O)O ? f

Please let me know the test result on file for Nc1ccn(C2O[C@H](CO)[C@@H](O)[C@H]2O)c(=O)n1 (stereo not given in full) . f

Recorded test call requested for Cc1nc(Nc2cn[nH]c2C(=O)Nc2ccc(CN3CCN(C)CC3)cc2)c2ccsc2n1 f

For this compound, state the assay outcome: N#C/C(=C\c1c(-c2ccccc2)[nH]c2ccccc12)C(=O)c1ccccc1 f

Each compound tested received a call. Report the one for CCOc1ccc(-c2nonc2NC(=O)c2cccc(C)c2)cc1OCC . f

Please indicate how the test categorized COc1cc(C(C)n2cc(-c3ccccc3)nn2)ccc1OC1CCCC1 (stereo not given) . f

Dear all, I need the recorded test outcome for O=S(=O)(Nc1ncccn1)c1ccc(NC2Nc3nc4ccccc4nc3S2)cc1 (stereo not given) , thank you. f

---

- System: ACHN renal
- Protocol Summary: NCI-60 one-dose screen, 48 h (100 = growth as untreated, 0 = no growth, -100 = all killed)
- Recorded Conditions: 10 µM unless noted
The panel holds about 83,000 compounds, 20% with a hit somewhere; the sample as a whole holds those more often.
Kindly note that classification relies on growth with these boundaries: low bracket (below 30%), middle bracket (30% to below 90%), high bracket (90% or more)

Sample answers from the record:
O=c1cc(-c2ccccc2)oc2cc(OCc3cn(Cc4ccc(F)cc4)nn3)cc(OCc3cn(Cc4ccc(F)cc4)nn3)c12 : low bracket
O=C(NC1CCN(Cc2ccccc2)CC1)c1cc2nc(-c3ccc(Cl)s3)cc(C(F)(F)F)n2n1 : high bracket
O=C(Nc1ccc(N2CCNCC2)cc1)c1[nH]ncc1Nc1ncnc2sc3c(c12)CCC3 : low bracket
CN(C)CCNc1cc(-c2ccccc2)nc2ccccc12 : low bracket
COc1cc(-c2c3c(cn2S(=O)(=O)c2ccccc2)-c2nc(N)sc2CC3)cc(OC)c1OC : middle bracket
COc1ccc(-c2nc(N3CCN(C(=O)C4CCCCC4)CC3)c3c4c(sc3n2)CCCC4)cc1 : middle bracket
C=C1C(=O)O[C@H]2[C@H]1CC/C(COC(=O)/C=C\C(=O)O)=C\CC[C@@]1(C)O[C@@H]21 : high bracket
CSc1nc2c(c(=O)[nH]1)N=C1c3ccccc3C(=O)C1C(c1ccccc1)N2 (stereo not given) : middle bracket

Textbook exercise: identify the category of the molecule given here, CCOc1ccc2nc(C)cc(Nc3ccc(Br)cc3)c2c1 , according to its measured value. high bracket

Kindly state the category for this molecule: COc1ccccc1C1=C(Br)C(=O)c2nc(C)ccc2C1=O low bracket

Category lookup for the molecule O=c1oc2ccc(I)cc2c(=O)n1-c1ccc(F)cc1F low bracket

Note: place this molecule into its band. Item: COc1ccc(-c2cn3c(C(=O)Nc4ccccc4Cl)c(-c4ccccc4)c4c3n2CCCC4)cc1 middle bracket

Class for Cc1cc(OC(=O)c2ccc([N+](=O)[O-])cc2)nc2[nH]c(=O)sc12 ? high bracket

Category lookup for the molecule CC1(C)CC2(C)OC2C2(C1)N=NC(=Nc1ccccc1)O2 (stereo not given) low bracket

Could you place COc1cc(CNC(=O)Cc2ccccc2)ccc1OCc1cn(-c2ccc(F)cc2)nn1 in its proper category? Many thanks. high bracket
